Hello, the source for this data is PubChem BioAssay AID588856, in case you need it.

assay: qHTS for Inhibitors of TGF-b: Cytotox Counterscreen; details: HepG2 CAGA-GFP viability, ATP luminescence, 18 h; series mostly up to 46.1 µM
Hit rate of the full screen: of about 410,000 compounds, about 3,100 (0.76%) were called active. The call rests on the fitted dose curve; in most records, active means well fitted cell-killing curve with a large enough effect; inactive means no such curve, though single readings can be large or run the other way. This is one part of a sample in which actives are shown more often than they occur.
Classes used: Y = active, N = inactive

* COc1ccccc1Nc1c2c(nc3ccc(NC(=O)/C=C/c4cc(OC)c(OC)c(OC)c4)cc13)CCCC2 | Y
* CC(C)c1ccc2c(c1)c(SC(C)(C)C)c(CC(C)(C)C(=O)O)n2Cc1ccc(Cl)cc1 | Y
* Cc1ccccc1-c1nc2cc(NC(=O)c3cccc(OCCC(C)C)c3)ccc2o1 | N
* CCn1c2ccccc2c2nnc(SCC(=O)O)nc21 | N
* CC(C)c1ccc(OCC(=O)N(Cc2ccc(N(C)C)cc2)C2CCS(=O)(=O)C2)cc1 (stereo not given) | N
* O=C(Nc1ccc2oc(-c3ccc(O)c(Br)c3)nc2c1)c1cc2ccccc2o1 | N
* COc1cc(/C=C/C(=O)O)cc(S(=O)(=O)Nc2ccccc2SC)c1OC | N
* CCCN(CCC)CCNC(=O)Cn1cnc2sc(C)c(S(=O)(=O)N3CCC(C)CC3)c2c1=O | N
* Cc1ccc2ccc3c(c2n1)NS(=O)(=O)c1ccccc1-3 | N
* COc1cccc(-c2cc3nc(NCCOc4ccccc4Cl)n(C)c(=O)c3s2)c1 | N
